Assay: CIMA assay (tetrazolium reduction, cell viability), CCD1079SK
Type: cell-based, human
Settings: human
ASSAY ENDPOINT: viability at 72 h, 100 µg/mL (%)

> print(dat)
                                   compound  measured.number
1  CCCCCC(O)C(O)/C=C/C1CCCCCCCC(=O)O1 (stereo not shown) [compound 31-34-5, 12,13-dihydroxy-10-octadecen-9-olide]               17

---

Assay: CIMA assay (tetrazolium reduction, cell viability), CCD1079SK
Assay type: cell-based, human
Settings: human
ASSAY ENDPOINT: viability at 72 h, 50 µg/mL (%)

> print(dat)
                                   compound               assay.endpoint  units  measured.number
1  CCCCCC(O)C(O)/C=C/C1CCCCCCCC(=O)O1 (stereo not shown) [compound 31-34-5, 12,13-dihydroxy-10-octadecen-9-olide]  viability at 72 h, 50 µg/mL      %               90
